quantity_kind: melting point

Sample answers from the record:
>>> recorded_measurement("CCOC(=O)C1=C(COCCNC=O)NC(C)=C(C(=O)OC)C1c1cccc(Cl)c1Cl (stereo not drawn)")
"178 to 181 °C"
>>> recorded_measurement("COC(=O)c1cccc(OCc2c(Cl)cccc2Cl)c1")
"96 to 98 °C"

// switching to the query molecule
Looking up COC(=O)CCc1cnoc1-c1cc(Cl)c(Cl)s1 , I see its melting point listed as 49 to 50 °C

---

Please go through the items and note down their melting point.

Sample answers from the record:
>>> recorded_measurement("CC(=O)Nc1cccc(-c2cccnc2)c1")
"72 to 74 °C"
>>> recorded_measurement("O=C(O)[C@@H]1C[C@H](SCc2ccc(C3CCCCC3)cc2)CN1")
"209 to 210 °C"

Looking up CCCc1cnc(NC(=O)C(c2ccccc2)c2ccccc2)o1 , I see its melting point listed as 122 °C
